System: H2122
Assay: Cell viability dose-response, H2122
Type: cell-based, human
Details: Homo sapiens, NCI-H2122, Table 9, competitor; read-out: IC50 to H2122 cells
quantity: IC50 (nM)
Provide only the numeric value, understood in nM.

Answer with IC50 of O=C(Nc1nc2ccccc2[nH]1)c1ccc(C(=O)c2ccccc2)cc1 measured for H2122.
38.3

System H2122. Read-out IC50. Item O=C(Nc1nc2ccccc2s1)c1ccc(C(=O)c2ccccc2)cc1 . Report value.
6.44

Consider the compound O=C(Nc1nc2ccc(O)cc2s1)c1ccc(C(=O)c2ccccc2)cc1 tested on H2122; state its IC50.
256

Provide IC50, tested on H2122, for COc1ccc(CCNC(=O)NC(=O)c2ccc(C(=O)NCc3ccccc3)cc2)cc1 .
277

For H2122, give the measured IC50 of the entry COc1ccc(CCNC(=O)NC(=O)c2ccc(C(=O)c3ccccc3)cc2)cc1
142

Report IC50 under test system H2122 for COc1ccc(CCNC(=O)NC(=O)c2ccc(-c3ccccc3)cc2)cc1 .
115

Look up H2122 data: IC50 of COc1ccc2nc(NC(=O)c3ccc(N)cc3)sc2c1 , then report it.
40
